All values here come from the supplement of paper PMC12042874.

- Method description: amyloid nucleation score (Sup35N fusion, yeast selection) (log enrichment); library NNK2; higher = more nucleation; inactive = no reads after selection;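 note: zero at mode of non-aggregating sequences after 7 days selection at 30°C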
Each record's amyloid nucleation score is compared with range 1: < -0.2; range 2: ≥ -0.2 and < 0.8; range 3: ≥ 0.8 to give its class.

1) DECCMWMVLPEGSPAQRPLG ... range 3
2) HLRWARRIGVCTVFYLSRIC ... range 2
3) SFNEMILHLIPRSCSLKKYI ... range 1
4) QGLMIVINGSSYYVYVCLKG ... range 3
5) NGLESYDFTQLY ... range 1
6) GLKTMLY ... range 1
7) FWGGKNYI ... range 1
8) CDCWYFKC ... range 3
9) RQSIEISYLYISFGHKYR ... range 3
10) QNEVSLEVVFVKEGVGFDRL ... range 1
11) NWQVPKVFQVLNYA ... range 2
12) HLTSKVTGASIKVTKVNYLD ... range 1
13) KKNEIEVECGPNCGTGTLVF ... range 3

====

- Method description: amyloid nucleation score (Sup35N fusion, yeast selection) (log enrichment); library NNK3; higher = more nucleation; inactive = no reads after selection
Quantity measured: amyloid nucleation score

1. PIQGAMTRNYRFRTGRGFCL ... 0.882
2. NVVIFML ... 2.47
3. YRESDKVTFWLYLSRVDDLD ... 2.06
4. FFIFRDVSTVDSLGPLYRLM ... 1.14
5. FLYMSMPSLSMVQICYSQRG ... 1.99
6. FRMTPHIGALSNRLHVTTWL ... -0.226
7. YVMNHTLGAILNAFRGI ... 1.04
8. MCRLDA ... 2.38

====

- Method description: amyloid nucleation score (Sup35N fusion, yeast selection) (log enrichment); library NNK3; higher = more nucleation; inactive = no reads after selection
Quantity measured: amyloid nucleation score

1. IADSKHTNCFRYMSHVW ... inactive
2. LYVWLAWYWVYPINHALVVC ... inactive
3. ICDFCQQCSVNERKTLNYSA ... inactive
4. FIGVKQTRKLNTFCLGSWLM ... -0.061
5. RICSQMLFFRYESRHFWSFV ... inactive
6. RQIVKPASQVILCRCLCTGA ... 1.04
7. IFNMSQYNKLECTLTLY ... inactive
8. DIRRSYTLVRTGFTV ... inactive
9. MINWHSRMSSEG ... inactive
10. IQDFSCFQRSEAVTIQGRS ... inactive
11. ARRDLFHWCRRQSCVYN ... -0.275
12. VCFVWFRRWPTIPR ... inactive
13. LYSSLCRGWLCRISISTRAP ... inactive
14. DYCLSLLWINMPHVGNIVNL ... inactive
15. VINVYTAINGSWALN ... 2.17
16. GYVVQIMFYILVVHTTWSSA ... -0.451
17. VGDHDPSRFCQDNLCLSRCL ... inactive

====

In this section we review reported amyloid nucleation score values for a set of substances.
- Method description: amyloid nucleation score (Sup35N fusion, yeast selection) (log enrichment); library NNK1; higher = more nucleation; inactive = no reads after selection
Quantity measured: amyloid nucleation score

1) LVVNEFALVNKPDINFCLPQ ... 4.56
2) SLIFCSYSNDLFHSWNHKFR ... -0.068
3) KSHIIFSIWQRLFGGHRISK ... 0.413
4) NYEYRDYASDERLYGSGTML ... 0.103
5) YIDVGICYGGDERVLFLV ... 1.2
6) QCANAVNHRTLGLMLFKMVL ... 0.19
7) DGHFVALSVLVCTMRC ... 1.01
8) ATQLAFSMILSAAVYFLKVV ... -1.33
9) VKGQHFQLKIVRRLRTFRHH ... 3.79
10) VCCYILAYNMFGVLAEWLCG ... 3.66
11) DNLSIWGL ... -0.629
12) ACQLLMCLCFFETKGLYLDG ... 7.6
13) ILVYERTYFRNLQWIIRWFS ... -0.356
14) RMFPCYIAV ... 0.015
15) FGMIFFLLTMALRDVCVRLR ... 7.24
16) MVMNTKCE ... -0.643
17) MHGSGLHSDSLGPTV ... 0.565
18) FEYRRNLKCVSFFWSVGINR ... -0.436
19) IKYFVLAWTSDPLTYVTVTS ... 0.953
20) DCISRLWR ... -0.83
21) HCFPCLVVIV ... 0.121
22) RSLRVA ... -0.214
23) GLEGIRIGWSSLVSMCLWRG ... -0.016
24) SVNWRYRALFDVRPAPLASQ ... -1.74
25) LCMVAQLWYQPV ... 2.01
26) GRISRFLFQRDNVWPSLAKQ ... 0.171
27) IVYIWFLSLNFSMMVSFRFP ... 0.805
28) FAPMILRPVLSQMAWWKDIA ... -0.108
29) MNVFVSRNYVYLKYEFRSLA ... 6.64
30) LLNVVCRARVWS ... -0.241
31) GATSFFFSFRESNPLSNNHS ... 2.79
32) NDSDARYHVFRK ... -0.256
33) VQCFLAQRSVDSGATELIIV ... 0.114
34) CTSLDFSNKVRCVMGQSVLL ... -0.606
35) SWPLWEVMPRWGARDRGWVG ... 0.553

====

- Method description: amyloid nucleation score (Sup35N fusion, yeast selection) (log enrichment); library NNK1; higher = more nucleation; inactive = no reads after selection
Classify by measured amyloid nucleation score: yes (1) if it is equal to or exceeds 0.1, no (0) if it is smaller.

1. RVQCNNMKVCGITIFLMRS ... yes (1)
2. TSINWFRTVLYGVSLNYFWV ... yes (1)
3. ETITKVVQQLSRLDKLSTYW ... yes (1)
4. ICTEIRRGLHE ... yes (1)
5. KNRQLTRLFYTWELRTGTVG ... no (0)
6. YSRSGRTTNLAPNLHLRTMS ... yes (1)
7. VQCVHLSNME ... yes (1)
8. HRIITCPFTSWNH ... yes (1)
9. SHVPEVGVGSDAVFLANKGI ... no (0)
10. ANSYARCYNLVWKLV ... no (0)
11. ILIAKCSLPCYMKRGNAPCL ... yes (1)
12. AYLVPGQYVSPSFRFLTKNE ... yes (1)
13. SHFVLMLFENSIIVCLEDWE ... yes (1)
14. LSEEWTIYKFNRRRMKIGRG ... yes (1)
15. VISVNLGFFPSFVIRASVAS ... yes (1)
16. TITHGYLRLRYCVR ... no (0)
17. EFGNVIRVCNLI ... no (0)

====

In this section we review reported amyloid nucleation score values for a set of substances.
- Method description: amyloid nucleation score (Sup35N fusion, yeast selection) (log enrichment); library NNK1; higher = more nucleation; inactive = no reads after selection
Quantity measured: amyloid nucleation score

1) NCPFEW ... -0.116
2) ACTSLASFHYVLHPKYSCRV ... 1.2
3) VIWSNWRRRVPEGPDERYKR ... 0.649
4) GKDLDMRRLWFGPAGIWWSK ... 0.006
5) MNTWDMSLIPWSLARWVNTA ... 0.063
6) FCQLVIFY ... 2.8
7) VYSRPL ... 0.098
8) VWACSPGDVAFMP ... 0.762
9) FDGGKVSILFAFISNP ... 6.25
10) RYEGKVKHYFKFKIKPMQV ... 0.809
11) NSYKNYCVLCECRC ... 4.21
12) RGITNCVQCPVIPWFLRYYG ... -0.401
13) LRTGQGHYDRVVGHRHNLCA ... -1.42
14) RIMMMGQLTFVYMGQHSSMV ... -0.062
15) CCYNFYDSGANCHLFFVSFR ... -0.817
16) DFYTVLEKYVM ... -0.157
17) NYIGYLYLFDFCEHDLCRCF ... 6.62
18) LMWKNSGNYKLRCYRVV ... -0.065
19) TTFFDLT ... 0.713
20) SFPVQQIYF ... 0.971
21) LHVISGFYKCRTKRL ... 0.862
22) RLNLSLSVR ... 0.517
23) RCKFESVKRVS ... 1.42
24) TCNHYNRVVFQSNVIYLIHV ... 2.77
25) NFRWILSSAMDAIFPYVAFV ... 1.52
26) IFGCRLLYCS ... 0.402
27) IGFFPQDSYGFGLRTEINGL ... 0.145
28) AFSYRGGVMRSSFEMLTYVS ... -0.906
29) VYRCCLKAVCFIDVVTGLWG ... -0.173
30) IKMDFTFICIRVRGV ... 0.343
31) RRVLSRGSAVSWALSSGGD ... -0.586
32) SGTSLPNITLLDTFCTRCFV ... -0.095
33) RHKYMWM ... 1.46
34) NCTARMKVGFAGFSFTLWIA ... 0.533
35) EDTSKVKICFSVIVYSMLNR ... 8.16
36) PATELLYNVCGGY ... 0.044
37) RMSLLYLSSVKLFNWHAALG ... -0.465
38) RRPENKCYHPLVCDFVAVWF ... 0.476
39) MCSLYFLYGAGVSCGSVLNV ... 0.063
40) QVRGSASYSVHWINELFFKQ ... 1.64
41) FDSRENETTCAMSEDMTYVV ... -0.238
42) LNISQRRIYFWSYWLHHITY ... -0.282
43) GFNLAW ... -0.547
44) CRFPCSCHRWSMIRSVVCKR ... 0.03
45) RVFSSFGFMKRRPVWTVWIT ... -0.324
46) SAYSKILSLPVRMGVWVAHI ... 0.658
47) LVFDGNLETCRQ ... 0.164
48) GQVHRFIWLVT ... -0.11
49) LYRRGTRPPG ... -1.28
50) INDESFWDCIVPNRMKGFSG ... 0.325
51) RYRCSKVRRAMSKLTYVGMA ... 4.18
52) QFSCFMMFIIYE ... 4.16
53) LWGIMYTM ... -0.026
54) WCSDKSVGRAKDDDSGTRRC ... -0.018
55) NPDDVFMSAVWGYF ... -0.127
56) LSLCSLYNSWQGM ... 0.492
57) IRAQGHNYWALMRVAEWVVG ... 1.75
58) PNYEVDCDMFYSSFVGGFRV ... 0.173
59) RARLNRFVICVSLDMLVLWM ... -0.709
60) MWVLRPCCHFAVCRGIKVSR ... -0.046
61) WPASLSSCIS ... -0.047
62) TLFRGMGYSWNVNKPDARKV ... -0.403
63) LYTNSLRF ... -0.419
64) SSMNSWTDFFHFCST ... 0.032
65) VDLLGTTDGRSRVLFRIRTR ... 0.151
66) KKSGRYESVSQGWYDRLLQF ... -0.667
67) EGITHVFIRDGVGSYLKAET ... 1.33
